experiment description: Urinary concentrations of NNI compounds in wild raccoons
Assay type: in vivo, raccoon, Procyon lotor
condition info: raccoon urine, creatinine‐adjusted, n = 59
readout name: Percentile 75th urinary concentration

Examples with answers:
[
  {
    "compound": "CN/C(=N\\[N+](=O)[O-])NCc1cnc(Cl)s1 [Clothianidin, clothianidin]",
    "reported measurement": "0.43 µg/g creatinine"
  },
  {
    "compound": "C/C(=N\\C#N)N(C)Cc1ccc(Cl)nc1 [Acetamiprid, acetamiprid]",
    "reported measurement": "0.25 µg/g creatinine"
  },
  {
    "compound": "CN/C(=N/CC1CCOC1)N[N+](=O)[O-] (centres unmarked) [Dinotefuran, dinotefuran]",
    "reported measurement": "<PQL"
  },
  {
    "compound": "O=[N+]([O-])NC1=NCCN1Cc1ccc(Cl)nc1 [Imidacloprid, imidacloprid]",
    "reported measurement": "<PQL"
  },
  {
    "compound": "CCN(Cc1ccc(Cl)nc1)/C(=C/[N+](=O)[O-])NC [Nitenpyram, nitenpyram]",
    "reported measurement": "<PQL"
  }
]

Answer with reported Percentile 75th urinary concentration of N#C/N=C1\SCCN1Cc1ccc(Cl)nc1 [Thiacloprid, thiacloprid]
<PQL

Answer with reported Percentile 75th urinary concentration of CN1COCN(Cc2cnc(Cl)s2)/C1=N\[N+](=O)[O-] [Thiamethoxam, thiamethoxam]
<PQL

Answer with reported Percentile 75th urinary concentration of C/C(=N\C#N)NCc1ccc(Cl)nc1 [N‐dm‐acetamiprid, N‐desmethyl‐acetamiprid]
0.35 µg/g creatinine

----------
experiment description: Urinary concentrations of NNI compounds in wild raccoons
Assay type: in vivo, raccoon, Procyon lotor
condition info: raccoon urine, creatinine‐adjusted, n = 59
Labelling: Percentile 100th urinary concentration reported below 9 µg/g creatinine becomes met; at or above becomes not met.

Confirm or reject: Percentile 100th urinary concentration of C/C(=N\C#N)NCc1ccc(Cl)nc1 lies strictly below 9 µg/g creatinine
not met

Confirm or reject: Percentile 100th urinary concentration of O=[N+]([O-])NC1=NCCN1Cc1ccc(Cl)nc1 lies strictly below 9 µg/g creatinine
met

Confirm or reject: Percentile 100th urinary concentration of N#C/N=C1\SCCN1Cc1ccc(Cl)nc1 lies strictly below 9 µg/g creatinine
met

Confirm or reject: Percentile 100th urinary concentration of CN/C(=N\[N+](=O)[O-])NCc1cnc(Cl)s1 lies strictly below 9 µg/g creatinine
not met

Confirm or reject: Percentile 100th urinary concentration of C/C(=N\C#N)N(C)Cc1ccc(Cl)nc1 lies strictly below 9 µg/g creatinine
met

----------
experiment description: Urinary concentrations of NNI compounds in wild raccoons
Format: in vivo, raccoon, Procyon lotor
condition info: raccoon urine, creatinine‐adjusted, n = 59
readout name: Percentile 95th urinary concentration (µg/g creatinine)
Provide only the numeric value, understood in µg/g creatinine.

Answer with reported Percentile 95th urinary concentration of CN/C(=N\[N+](=O)[O-])NCc1cnc(Cl)s1
4

Answer with reported Percentile 95th urinary concentration of C/C(=N\C#N)NCc1ccc(Cl)nc1
8.28

Answer with reported Percentile 95th urinary concentration of CN1COCN(Cc2cnc(Cl)s2)/C1=N\[N+](=O)[O-]
0.5

Answer with reported Percentile 95th urinary concentration of CN/C(=N/CC1CCOC1)N[N+](=O)[O-] (centres unmarked)
1.38

Answer with reported Percentile 95th urinary concentration of O=[N+]([O-])NC1=NCCN1Cc1ccc(Cl)nc1
0.43

Answer with reported Percentile 95th urinary concentration of C/C(=N\C#N)N(C)Cc1ccc(Cl)nc1
0.79

Measured values drawn from paper PMC9544187 for this set.
